Assay: Inhibition of human GLUT1 in human KMS11 cells over-expressing human GLUT1 assessed as as inhibition of receptor-mediated cell proliferation after 72 hrs by CellTiter-Glo assay
pIC50: −log10 of the molar value.
Observed Property: pIC50

Take a look at these entries with their results.
COc1ccc(C(=O)N(Cc2ccncc2)Cc2cccc(OCc3cccc(OC)c3)c2)cc1: 4.55
COc1ccc(C(=O)N(Cc2ccncc2)Cc2cccc(OCC(=O)c3ccc(Cl)cc3)c2)cc1: 4.77
COc1ccc(C(=O)N(Cc2ccncc2)Cc2cccc(OCCc3ccc(C)cc3)c2)cc1: 4.90
O=C(c1ccc(Cl)cc1)N(Cc1ccncc1)Cc1cccc(OCCc2ccc(F)cc2)c1: 4.81
COc1ccc(C(=O)N(Cc2ccncc2)Cc2cccc(OCC3CCOCC3)c2)cc1: 4.59
COc1ccc(C(=O)N(Cc2ccncc2)Cc2cccc(OCCc3ccccc3)c2)cc1: 4.68

a. COc1ccc(C(=O)N(Cc2ccncc2)Cc2cccc(OCc3ccc(C(F)(F)F)cc3)c2)cc1
b. COc1ccc(C(=O)N(Cc2ccncc2)Cc2cccc(OCCc3ccc(Br)cc3)c2)cc1
c. COc1ccc(C(=O)N(Cc2ccncc2)Cc2cccc(OCc3ccc(F)cc3)c2)cc1
Task: Rank order required: pIC50, descending. // rank by listing labels in the order requested
Output: b, a, c
(b: 5.19, a: 4.77, c: 4.54)

The reported numbers originate from BindingDB's records for doi:10.1016/j.ejmech.2017.08.029.
